Values compiled from PubChem BioAssay AID2060612.

The compounds listed here are annotated with their viability, T/C.
System: 565232-114-T-J1-PDC complex spheroid viability;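 further: spheroids exposed to compounds for 7 days before readout; 100% = DMSO vehicle wells with luminescence normalized to vehicle control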
experiment: Anticancer human tumor 565232-114-T-J1-PDC patient-derived bladder carcinoma cell line growth inhibition [CLK]
condition_label: second compound 0.0316 µM; first compound 0.1 µM; stronger effect = lower value
Only the number, expressed in %, is required.

INSERT INTO results (compound, reading) VALUES
  ('C=CC(=O)N1CCN(c2nc(=O)n(-c3c(C)ccnc3C(C)C)c3nc(-c4c(O)cccc4F)c(F)cc23)C(C)C1 (stereo not drawn) + CNC(=O)c1ccc(Nc2nc(OC3CCCC3)c3c(-c4ccc5nc(C)oc5c4)c[nH]c3n2)c(OC)c1', 83.5),
  ('O=C(c1cc(Cc2n[nH]c(=O)c3ccccc23)ccc1F)N1CCN(C(=O)C2CC2)CC1 + CN1CCN(c2cc(C(=O)Nc3cc4cc(-c5cnn(C)c5)ccc4cn3)ccn2)CC1', 117),
  ('Nc1ccn(C2OC(CO)C(O)C2(F)F)c(=O)n1 (stereo not drawn) + CN1CCN(c2cc(C(=O)Nc3cc4cc(-c5cnn(C)c5)ccc4cn3)ccn2)CC1', 62.8),
  ('CC1COCCN1c1cc(C2(S(C)(=N)=O)CC2)nc(-c2ccnc3[nH]ccc23)n1 (stereo not drawn) + CN1CCN(c2cc(C(=O)Nc3cc4cc(-c5cnn(C)c5)ccc4cn3)ccn2)CC1', 93.5),
  ('Cn1ncnc1[C@H]1c2n[nH]c(=O)c3cc(F)cc(c23)N[C@@H]1c1ccc(F)cc1 + CNC(=O)c1ccc(Nc2nc(OC3CCCC3)c3c(-c4ccc5nc(C)oc5c4)c[nH]c3n2)c(OC)c1', 53.2),
  ('CC(=O)O[C@H]1C(=O)[C@@]2(C)[C@H]([C@H](OC(=O)c3ccccc3)[C@]3(O)C[C@H](OC(=O)[C@H](O)[C@@H](NC(=O)c4ccccc4)c4ccccc4)C(C)=C1C3(C)C)[C@]1(OC(C)=O)CO[C@@H]1C[C@@H]2O + CN1CCN(c2cc(C(=O)Nc3cc4cc(-c5cnn(C)c5)ccc4cn3)ccn2)CC1', 17.3),
  ('Nc1ccccc1NC(=O)c1ccc(CNC(=O)OCc2cccnc2)cc1 + CN1CCN(c2cc(C(=O)Nc3cc4cc(-c5cnn(C)c5)ccc4cn3)ccn2)CC1', 108);

Given item C=C(F)C(=O)N1CCN(c2nc(OCC3CCCN3C)nc3c2CCN(c2cccc4cccc(Cl)c24)C3)CC1CC#N (stereo not drawn) + CNC(=O)c1ccc(Nc2nc(OC3CCCC3)c3c(-c4ccc5nc(C)oc5c4)c[nH]c3n2)c(OC)c1 , the value recorded as its viability, T/C is 79.8
